Every entry's value here was drawn from PubChem BioAssay AID777.

Assayed Target: Cytochrome P450 2C9 (Homo sapiens)
Assay Protocol: blockers of cytochrome P450 2C9 activity – biochemical, luminescence, ADME assay, primary screen (AID 777)
Condition Description: CYP2C9 Supersomes, luciferin-H conversion, at 5 µM
About 19,000 (20%) of roughly 96,000 compounds were called active.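 The calls were made as follows: active = blocking of liver enzyme CYP2C9 beyond about 50% at 5 µM (limit read from the data); inactive = the rest.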 Not all results are given here.
The categories you may choose from are true = active, false = inactive

A selection of reference data follows.
{"columns": ["Compound", "Answer Label"],
 "data": [
  ["CCCOc1cc(C)c(S(=O)(=O)n2nnc3ccccc32)cc1C", "false"],
  ["CCCCCCSc1nsc(N)n1", "false"],
  ["CC1(C)CC(=O)C(C=NCc2cccnc2)=C(O)C1", "false"],
  ["CCC(C)NC(=O)N[C@@H](CCSC)C(=O)O (some centres undefined)", "false"]
]}

Query block: Test call, this compound: COc1ccc(-n2c(SCC(=O)NCc3ccco3)nnc2-c2c[nH]c3ccccc23)cc1
Result block: true

Query block: Test call, this compound: COc1ccccc1-c1cc(C(=O)N2CCCCC2)no1
Result block: false

Query block: Test call, this compound: COc1ccc(N2C(=O)C3CCCN3C2c2cccc(OC)c2)cc1 (centres undefined)
Result block: false

Query block: Test call, this compound: CCOC(=O)C1CN(S(=O)(=O)c2ccc(F)cc2)C1
Result block: false

Query block: Test call, this compound: COc1ccc(N2CCN(C(=O)CSc3nc4cc(OC)c(OC)cc4cc3C#N)CC2)cc1
Result block: false

Query block: Test call, this compound: COc1ccc2nc(N3CCCC(O)C3)c(C#N)cc2c1 (centres undefined)
Result block: true

Query block: Test call, this compound: COc1ccc(C(C#N)Nc2ccc(C)cc2)cc1 (centres undefined)
Result block: false

Query block: Test call, this compound: O=C(COC(=O)c1n[nH]c2ccccc12)NCc1ccccc1
Result block: false

====

Assayed Target: Cytochrome P450 2C9 (Homo sapiens) (UniProt P11712)
Sequence (P11712 whole entry, looked up): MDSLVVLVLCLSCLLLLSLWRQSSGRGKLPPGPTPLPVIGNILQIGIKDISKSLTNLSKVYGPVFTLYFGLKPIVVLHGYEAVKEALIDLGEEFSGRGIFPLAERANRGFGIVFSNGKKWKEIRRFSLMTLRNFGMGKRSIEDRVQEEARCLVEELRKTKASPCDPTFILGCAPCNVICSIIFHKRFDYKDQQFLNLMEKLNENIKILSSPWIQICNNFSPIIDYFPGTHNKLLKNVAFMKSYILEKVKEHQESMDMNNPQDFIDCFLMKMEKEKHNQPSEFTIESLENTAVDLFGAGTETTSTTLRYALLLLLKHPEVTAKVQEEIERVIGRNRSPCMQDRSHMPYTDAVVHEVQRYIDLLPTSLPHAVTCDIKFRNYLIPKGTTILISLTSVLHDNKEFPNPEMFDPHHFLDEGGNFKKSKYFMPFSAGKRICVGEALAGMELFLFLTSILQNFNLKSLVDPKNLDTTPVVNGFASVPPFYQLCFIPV
Assay Protocol: blockers of cytochrome P450 2C9 activity – biochemical, luminescence, ADME assay, primary screen (AID 777)
Condition Description: CYP2C9 Supersomes, luciferin-H conversion, at 5 µM, active compounds read high
Out of some 96,000 compounds screened, about 19,000 (20%) were called active. The list is a sample of the results.
Parameter: inhibition (%)
Field format: number, assumed %, no unit text.

Answered examples (3):
{"columns": ["Molecule", "inhibition [%]"],
 "data": [
  ["CCc1ccc(CCC(=O)Nc2ccc(S(N)(=O)=O)cc2)o1", -7.2],
  ["CCC(C)NC(=O)c1cc(Cl)ccc1OC (stereo not drawn)", -166],
  ["CSc1nc(C)nc2c1c(=O)n(C)c(=O)n2C", -6.6]
]}

Query block: Report inhibition for CCOc1nc(-c2ccc(OC)cc2)ccc1-c1noc(-c2cc(OC)c(OC)c(OC)c2)n1 please.
Result block: 8.3

Query block: Report inhibition for COC(=O)[C@H](Cc1ccccc1)NC(=O)N1CC(C)OC(C)C1 (stereo partly drawn) please.
Result block: 4.3

Query block: Report inhibition for O=C(O)CSCC(=O)Nc1cccc(C(F)(F)F)c1 please.
Result block: 18.9

Query block: Report inhibition for CCCCc1nnc(NC(=O)CSc2nc(C)cc(=O)[nH]2)s1 please.
Result block: 14

Query block: Report inhibition for O=C(Cc1ccccc1)N/N=C/c1ccc(Cl)cc1Cl please.
Result block: 23.1

Query block: Report inhibition for O=C1CSC2=NCN(c3ccccc3)CN12 please.
Result block: 26.1

Query block: Report inhibition for CCC1CCCCN1CCCNC(=O)Cn1nc(-c2ccccc2)ccc1=O (stereo not drawn) please.
Result block: 9.1

Query block: Report inhibition for CCCCn1c(SCC(=O)NCCc2ccc(OC)c(OC)c2)nc2c1c(=O)n(C)c(=O)n2C please.
Result block: -17.3

Query block: Report inhibition for COc1cc(-c2nc(-c3ccncc3)no2)cc(OC)c1OC please.
Result block: 76.6

Query block: Report inhibition for CCNS(=O)(=O)c1ccc(NC(=O)Nc2cccc(C(F)(F)F)c2)cc1 please.
Result block: 34.1

Query block: Report inhibition for CSc1ccccc1C(=O)Nc1cccc(C(C)=O)c1 please.
Result block: 27.8

Query block: Report inhibition for COc1ccc(C(=O)Nc2nncs2)c(OC)c1 please.
Result block: -1.4

Query block: Report inhibition for Cc1ccc(/C=N/NC(=O)Cn2nc(C)c(Br)c2C)o1 please.
Result block: 23.7

Query block: Report inhibition for O=C(CN1CCN(c2ccc(F)cc2)CC1)Nc1cccc(C(F)(F)F)c1 please.
Result block: 82.8

Query block: Report inhibition for COc1ccc(NC(=O)c2c(C)oc3c2CCCC3)cc1 please.
Result block: 15.4

Query block: Report inhibition for CCOC(=O)C1=C(C)NC(=O)N(C(C)=O)C1c1ccc(Cl)cc1 (stereo not drawn) please.
Result block: 74.3

Query block: Report inhibition for Cc1sc(NC(=S)NC(=O)c2cccs2)nc1-c1ccc(CC(C)C)cc1 please.
Result block: 14.4

====

Assayed Target: Cytochrome P450 2C9 (Homo sapiens) (UniProt P11712)
Assay Protocol: blockers of cytochrome P450 2C9 activity – biochemical, luminescence, ADME assay, primary screen (AID 777)
Condition Description: CYP2C9 Supersomes, luciferin-H conversion, at 5 µM, active compounds read high
The campaign covered roughly 96,000 compounds. About 19,000 (20%) were called active. The list is a sample of the results.
Parameter: inhibition (%)
Field format: number, assumed %, no unit text.

{"columns": ["Molecule", "inhibition [%]"],
 "data": [
  ["COC(=O)C1=C(C)NC2=C(C(=O)c3ccccc32)C1c1ccc(-c2ccc(C(=O)O)cc2)o1 (centres undefined)", 97.3],
  ["CC(C)(C)NC(=O)Cn1nnc(-c2ccccc2Cl)n1", -42.7],
  ["Cc1nc2ccccc2cc1O", -22.9],
  ["O=C(O)c1ccc(F)c(S(=O)(=O)Nc2ccccc2)c1", 17],
  ["CCOc1ccc(-c2nnc(-c3ccco3)o2)cc1", 31.6],
  ["Cc1ccc(OCC(=O)Nc2ccc(-c3nnc(-c4ccco4)o3)cc2)cc1", 66.3],
  ["CCOCCCN1C(=O)CN(C2CCCCC2)C(=O)C1c1ccc(OCC)c(OC)c1 (centres undefined)", 15.3],
  ["COC(=O)C1=C(C)NC(=O)NC1/C=C/c1ccccc1 (centres undefined)", -0.6],
  ["Cc1nc(-c2ccc(NC(=O)c3cccs3)cc2)cs1", 20.2],
  ["Cc1ccc(-c2nnn(CC(=O)N(CCO)C(C(=O)NC(C)(C)C)c3ccncc3)n2)cc1 (centres undefined)", 76.1]
]}

Query block: Report inhibition for CCCS(=O)(=O)N1CCCC(C(=O)NCCN2CCCCC2C)C1 (centres undefined) please.
Result block: -5.4

Query block: Report inhibition for Cc1cccc(NC(=O)CSc2nc3c(c(=O)[nH]2)CCCC3)c1C please.
Result block: 35.7

Query block: Report inhibition for CCC(=O)Oc1cccc(C(=O)Nc2ccc(-c3nnc(-c4ccco4)o3)cc2)c1 please.
Result block: 53.3

Query block: Report inhibition for C=CCNC(=O)CSc1nc2sc(C)c(C)c2c(=O)[nH]1 please.
Result block: 58.1

Query block: Report inhibition for Cc1ccc(S(=O)(=O)Cn2nnnc2CN2CCN(Cc3ccc4c(c3)OCO4)CC2)cc1 please.
Result block: 29.7

Query block: Report inhibition for CC(=O)c1sc2nc(SCC(=O)N3CCCCC3)[nH]c(=O)c2c1C please.
Result block: 95.6

Query block: Report inhibition for COc1cccc(C(=O)Nc2ccc(NC(=O)c3ccco3)cn2)c1 please.
Result block: 23.4

====

// reported inhibition per item
Assayed Target: Cytochrome P450 2C9 (Homo sapiens) (UniProt P11712)
Assay Protocol: blockers of cytochrome P450 2C9 activity – biochemical, luminescence, ADME assay, primary screen (AID 777)
Condition Description: CYP2C9 Supersomes, luciferin-H conversion, at 5 µM, active compounds read high
In all, about 96,000 compounds went through this assay and about 19,000 (20%) were called active. Not all results are given here.
Field format: number, assumed %, no unit text.

Answered examples (4):
{"columns": ["Molecule", "Assayed Target", "Unit Symbol", "Meas Value"],
 "data": [
  ["NC(=O)N1CCCC1C(=O)Nc1ccc(Cl)c(Cl)c1 (stereo not drawn)", "Cytochrome P450 2C9 (Homo sapiens) (UniProt P11712)", "%", 14.9],
  ["CSc1ccc(-c2c(C#N)c(N)nc3c2c(C)nn3-c2ccccc2)cc1", "Cytochrome P450 2C9 (Homo sapiens) (UniProt P11712)", "%", 17.3],
  ["COC(=O)[C@H](C(C)C)n1c(C)c(C(C)=O)c(C(C)=O)c1C", "Cytochrome P450 2C9 (Homo sapiens) (UniProt P11712)", "%", 7],
  ["Cc1cc(OC(=O)c2c(Cl)cccc2Cl)nc(C)n1", "Cytochrome P450 2C9 (Homo sapiens) (UniProt P11712)", "%", 2.9]
]}

Query block: Report inhibition for CCC(C)(C)n1nnnc1C(c1ccccc1OC)N1CCSCC1 (stereo not drawn) please.
Result block: 17

Query block: Report inhibition for COc1cc(-n2c(C)nc3cc(C(=O)NCc4ccco4)ccc32)cc(OC)c1OC please.
Result block: 8.4
